- assay-target: T1, CD25 (R&D systems cat. #223-2A/CF) (UniProt P01589 22-213, limits assumed)
- T1 construct: Bought soluble protein
- T1 sequence (looked up): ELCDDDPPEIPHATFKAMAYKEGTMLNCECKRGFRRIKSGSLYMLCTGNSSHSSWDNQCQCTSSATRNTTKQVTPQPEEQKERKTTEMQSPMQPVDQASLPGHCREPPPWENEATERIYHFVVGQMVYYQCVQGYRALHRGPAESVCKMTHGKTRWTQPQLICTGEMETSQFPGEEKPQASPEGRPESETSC
- assay-explanation: Biacore (SPR); antibody captured on Protein A, CD25 injected
observable: Kd

{"binder": "anti-CD25 H1.22L1.43 (antibody, V domains shown) VH: QVQLVQSGAEVKKPGASVKVSCKASGYTFTSYRMHWVRQAPGQGLEWMGWINPNSGGTNYAQKFQGRVTITRDTSISTAYMELSRLRSDDTAVYYCARGGGVFDYWGQGTLVTVSS VL: EIVLTQSPATLSLSPGERATLSCRASQSVSYLHWYQQKPGQAPRLLIYTTSNRATGIPARFSGSGSGTDYTLTISSLQPEDFAVYYCHQRSTYPLTFGSGTKLEIK", "Kd": "0.3 nM"}

Please turn your attention to the following entry.
Quick check: Kd of anti-CD25 H1L1.43 (antibody, V domains shown, also called VL combination variant L1.43 paired with H1) VH: QVQLVQSGAEVKKPGASVKVSCKASGYTFTSYRMHWVRQAPGQGLEWMGYINPSTGYTEYNQKFQGRVTITADKSISTAYMELSRLRSDDTAVYYCARGGGVFDYWGQGTLVTVSS VL: EIVLTQSPATLSLSPGERATLSCRASQSVSYLHWYQQKPGQAPRLLIYTTSNRATGIPARFSGSGSGTDYTLTISSLQPEDFAVYYCHQRSTYPLTFGSGTKLEIK ?
1.3 nM
